# protocol_description: Soluble peptide degradation, Media condition (cell-conditioned media, LC-MS)
# Format: in vitro ADME, human
# assay_conditions: human; Figure 2B screen; hMSC-conditioned media, 24 h, LC-MS
Where a SMILES comes first, the peptide text is derived from it. [ ]: non-standard residue; d: D form. βAla = NCCC(=O)O
observed_property: metabolised at 24 h

metabolised at 24 h lookup needed for CC(=O)NCCC(=O)N[C@@H](CCCCN)C(=O)N[C@@H](CC(C)C)C(=O)N[C@H](C(=O)N[C@@H](C)C(=O)N[C@@H](CC(=O)O)C(=O)N[C@@H](CC(N)=O)C(=O)N[C@@H](Cc1ccc(O)cc1)C(=O)N[C@@H](C)C(=O)N[C@@H](CO)C(=O)N[C@@H](C)C(=O)N[C@@H](CCC(=O)O)C(=O)NCCC(N)=O)C(C)C [KLVAD-NY] (Ac-[βAla]KLVADNYASAE[βAla]-NH2) , thanks.
< 3%
